# test-target: MAP4K4
# experimental-parameters: ASO; further: test concentration or dose not given here
These antisense oligonucleotides have a phosphorothioate backbone; sugars and methylation of C are not fully specified.
endpoint: remaining target (mRNA or protein) (fraction of control)

residue-string	reported-value
CCGCTTCTGTCTCTCTGCCA	0.25
GACTTGGATGATGATCTCAC	0.86
GCATGGAATCCAGCACAGGA	0.69
CACACAGAATCTCAGAGTTA	0.61
AGACCCGGGCTGGGATCCTG	0.92
AGAGTAGACTCACCAGGCAC	0.75
CAGTTACAAGGAATTCCAAG	0.93
CCTGCTGCAGTCTCAGGAAA	0.37
AAGTTTCACCTCTGCATTCT	0.26
TAAACCTGACTGCTGCCACC	0.53
TGGACAATCATGGTTTTCAC	0.71
GTACGTCCATTTGTTGAAAT	0.51
ATGTAAGCGATCCAGTCTTC	0.67
TGTAGGCATCTCTCCCCACT	0.42
GAACCATCTGCACATGATTT	0.48
TTTGATTCTTTCATATTTTA	0.82

###

# test-target: BIRC3
# experimental-parameters: ASO
These antisense oligonucleotides have a phosphorothioate backbone; sugars and methylation of C are not fully specified.
Reported remaining target (mRNA or protein) (fraction of control) values for a set of sequences
endpoint: remaining target (mRNA or protein) (fraction of control)

residue-string	reported-value
TGAAGTGTCTTGAAGCTG	≥ 1
AATTGTTCTTCCACTGGT	≥ 1
GCATGGCTTTGCTTTTAT	≥ 1
ATTTTAATTAGAAGCACT	≥ 1
ACTGAAGACATTTTGAAT	0.38

###

# test-target: TRADD
# experimental-parameters: ASO
These antisense oligonucleotides have a phosphorothioate backbone; sugars and methylation of C are not fully specified.
Reported remaining target (mRNA or protein) (fraction of control) values for a set of sequences
endpoint: remaining target (mRNA or protein) (fraction of control)

residue-string	censoring-sign	reported-value
AGTGAGCGCCCCACCTTG	=	0.98
CCCTCGCGCTCGTACTCG	=	0.42
ACCCTAAGGCCATCCAGG	=	0.64
TCTGTTGGTCCTTCAGGC	≥	1
AGTGCTGGGCGAGCGCGG	≥	1
AAAGATCAAGGTGCTTCA	≥	1
GGTTCCCACGCCCGCCAG	≥	1
GCCGCACTTCAGATTTCG	≥	1
GGTGGCGGCGGCGGCGGC	=	0.99
TCCAGGTTCTCCAAAAGC	=	0.46
GGTATGCGCTGCCCACCC	≥	1

###

# test-target: PDPK1
# experimental-parameters: ASO
These antisense oligonucleotides have a phosphorothioate backbone; sugars and methylation of C are not fully specified.
endpoint: remaining target (mRNA or protein) (fraction of control)

residue-string	reported-value
GCATATTCTCTGGAGGTT	≥ 1
GACATCCCGCTCTCTGGT	0.68
ACTGGATGGGCACGGCGT	0.63
AAGGCCGAAATACAGCTT	0.29
GATTTTGCGAATATATTT	≥ 1
CATCCCGCTCTCTGGTTA	0.41
CACTGCACAGCGGCGTCC	≥ 1
TGGCTGGCAGGTGGTCTG	0.2
GAAGTCCTCAGGCCGCTT	0.28
ATGTTTTCCGGTTTAAGG	0.66
TAAACCCTTCCGCTTATC	≥ 1
ATTGTCATAATTGCCATA	0.78
GTTTCCGCCAGCCTGCTT	≥ 1
ATTTTCTACAAACTGGTG	0.83
GCAGGAACATAACACCAC	0.54
AAACTGGCTCAGGAGATT	0.26
CCAGCTCGGAATGGTGGG	0.82

###

# test-target: RELA
# experimental-parameters: ASO
These antisense oligonucleotides have a phosphorothioate backbone; sugars and methylation of C are not fully specified.
endpoint: remaining target (mRNA or protein) (fraction of control)

residue-string	censoring-sign	reported-value
CAGGTCCCGCTTCTTCAC	=	0.33
TGTATCTGGCAGGTACTG	≥	1
TGTCCTTTTACGTTTCTC	=	0.74
AGGTATGCCCTGGTTCAG	=	0.61
GCACTTGTAGCGGAAGCG	≥	1
GCACATCAGCTTGCGAAA	≥	1

###

# test-target: ITGB3
# experimental-parameters: ASO
These antisense oligonucleotides have a phosphorothioate backbone; sugars and methylation of C are not fully specified.
endpoint: remaining target (mRNA or protein) (fraction of control)

residue-string	test-target	censoring-sign	reported-value
ACGACACAGTCATCCTCA	ITGB3	≥	1
ACCACATACAGGATGGAC	ITGB3	≥	1
ATGACTGCTTATCATTAA	ITGB3	≥	1
TGTCACTACCAACATGAC	ITGB3	=	0.32
CACATTGACCACAGAGGC	ITGB3	=	0.74
AGAGATTGACTACATTTT	ITGB3	=	0.93
TCAGCTTGGGCCTGGCAG	ITGB3	=	0.6
AAGCGGGTCACCTGGTCA	ITGB3	≥	1
AAAGGCACAGGCAGCTCT	ITGB3	≥	1

###

# test-target: MAP2K6
# experimental-parameters: ASO
These antisense oligonucleotides have a phosphorothioate backbone; sugars and methylation of C are not fully specified.
endpoint: remaining target (mRNA or protein) (fraction of control)

residue-string	censoring-sign	reported-value
GACTGAGACATTTTCCCCTT	=	0.88
GATGCATATTAAATAATTTC	=	0.83
GGTGGGCCGAACCAGAAGCC	≥	1
ATCTGTTCCTTTGGATTCAT	=	0.73
TTTTCCCCTTTCCTTTGATG	≥	1
TGCCTTTCGACTGAGACATT	=	0.67
CTTCACCCCGAAACCCACCA	=	0.34
GCCAGGGCTGGCAGCTAAAA	=	0.8
GTTTCTCTTGACCGATGCAG	=	0.55
TCGACTGAGACATTTTCCCC	=	0.8
CGAGAAAGAACTTTTGCTGT	≥	1
GAGACATTTTCCCCTTTCCT	=	0.66
GACATTTTCCCCTTTCCTTT	=	0.85
CCTTTCGACTGAGACATTTT	≥	1
CATTAGAAGGCTTGACGTCT	=	0.67
CTGAGACATTTTCCCCTTTC	=	0.91
TATTTTCCCTGTCAATTACT	=	0.99
CATTTTCCCCTTTCCTTTGA	≥	1
CTTGCCTTTCGACTGAGACA	=	0.58
CGCTGCTGAAGAAAGATGCG	=	0.85
AGAAGAAAACAAACAAACAA	=	0.82
TATGTAGGCCGTTCTTTGGA	=	0.95
TTTCGACTGAGACATTTTCC	≥	1
TATCAAAGAATTACTCACTA	=	0.85
GGAAATCGAAGGATGGCCAA	≥	1
AAGAGAGGATTCAGGGAAGC	≥	1
CAGTTCATTCTATACTATAG	=	0.7
GCCATAAAAGGTGACAGTGA	=	0.86
TTAGTCTCCAAGAATCAGTT	=	0.96
CCCTAAAAGATGTGGTGATC	≥	1
GAATTTATCTAGTGATGTAT	≥	1
TCTGTAGCTAGTTTTGCAAC	=	0.88
AATTTTAAGGCCAGGGTTTC	≥	1
GTGAATTGCCAAATAGACAC	=	0.8

###

# test-target: RHOB
# experimental-parameters: ASO
These antisense oligonucleotides have a phosphorothioate backbone; sugars and methylation of C are not fully specified.
endpoint: remaining target (mRNA or protein) (fraction of control)

residue-string	test-target	censoring-sign	reported-value
GCCGTCTCGAAGACCTCG	RHOB	≥	1
ACCTCGCGCACGCCTTCC	RHOB	≥	1
ACTGAACACGATCAGCAG	RHOB	≥	1
CCGTCCACCTCAATGTCG	RHOB	≥	1
CCTTACTGAACACGATCA	RHOB	≥	1
GTCTTGGCAGAGCACTCG	RHOB	=	0.8
CCAGCTCTGTGCGGACAT	RHOB	=	0.79
CTCTGTGCGGACATGCTC	RHOB	=	0.61
GGGATGTTCTCCAGCGAG	RHOB	=	0.67
CCGTCGCCCACCACCACC	RHOB	≥	1
ATGTTCTCCAGCGAGTCC	RHOB	≥	1
AGACCTCGCGCACGCCTT	RHOB	=	0.84
CATAGTTCTCGAAGACGG	RHOB	≥	1
CGAAGACCTCGCGCACGC	RHOB	≥	1
TGCGGGCCAGCTCTGTGC	RHOB	=	0.69
GATGCAGCCGTTCTGGGA	RHOB	≥	1
GCACGTCTTGCCACACGC	RHOB	≥	1
GCCGTTCTGGGAGCCGTA	RHOB	≥	1
GTTCTGGGAGCCGTAGCG	RHOB	=	0.64
GTCCTTACTGAACACGAT	RHOB	=	0.95
AACTCGTCCTTACTGAAC	RHOB	=	0.7
ACGGGTTCCTGCTTCATG	RHOB	≥	1
AAGCACATGAGAATGACG	RHOB	≥	1
CGGACATGCTCGTCGCTG	RHOB	≥	1
CGGGCCAGCTCTGTGCGG	RHOB	=	0.62
GACATGCTCGTCGCTGCG	RHOB	≥	1
AGCACCTTGCAGCAGTTG	RHOB	≥	1
CTCGTCCTTACTGAACAC	RHOB	=	0.99
TGTGCGGACATGCTCGTC	RHOB	≥	1
CGAGGTAGTCGTAGGCTT	RHOB	=	0.61
GAGTCCGGGCTGTCCACC	RHOB	≥	1
CAGCAGTTGATGCAGCCG	RHOB	=	0.69
CGTGGCCGTCTCGAAGAC	RHOB	≥	1
TCGGCCACATAGTTCTCG	RHOB	=	0.87
GTAGTCGTAGGCTTGGAT	RHOB	=	0.71
